System: KM12 colon
Test: NCI-60 one-dose screen, 48 h
Details: 10 µM unless noted
Protocol: Growth inhibition of the KM12 human tumor cell line is measured as a screen for anti-cancer activity. Cells are grown in 96 well plates and exposed to the test compound for 48 hours. Compounds are tested at a single concentration, which is 10^-5 M for most compounds. The reported endpoint is percent growth (GI% or GIPRCNT), where numbers from 0 - 100% represent growth inhibition, and numbers from -100% - 0 represent cell death. For example, a value of 40 represents 60% growth inhibition. […]
About 83,000 compounds went through this panel and 20% of them were active in at least one assay; those are over-represented in the sample as a whole. The source made the active and inactive calls. Rule for the calls: active = growth percent below 10; inactive = the rest.
The categories you may choose from are active, inactive

{"MOLECULE": "Cc1ccc(Cl)cc1N1CCN(C(=O)[C@@H]2C[C@@H]2c2ccc(F)cc2)CC1", "LABEL": "inactive"}
{"MOLECULE": "COc1ccc(CN2CCc3c(Cl)nc(N)nc3C2=O)c(OC)c1", "LABEL": "inactive"}
{"MOLECULE": "[2H]C([2H])([2H])Oc1cc(F)ccc1/C=C/C(=O)/C=C(/C=C/c1ccc(F)cc1OC([2H])([2H])[2H])OB(F)F", "LABEL": "inactive"}
{"MOLECULE": "N#CSc1c[nH]c2ccc(/C=C/C(=O)/C=C(/C=C/c3ccc4[nH]cc(SC#N)c4c3)OB(F)F)cc12", "LABEL": "inactive"}
{"MOLECULE": "C[C@@H]1CC[C@@H]2[C@@H]1[C@H](OC(=O)/C=C/c1ccccc1)[C@]1(c3ccccc3)C[C@@H](NC(=O)CO)[C@@]2(C)O1", "LABEL": "inactive"}
{"MOLECULE": "CCN1CCN(CC(=O)Nc2nc3ccc(NCc4ccc(C)cc4)cc3s2)CC1", "LABEL": "inactive"}
{"MOLECULE": "O=C1Nc2ccccc2/C1=C/c1cccn1CCCCCn1c2ccccc2c(=O)c2ccccc21", "LABEL": "inactive"}
{"MOLECULE": "Cc1cc(N2CCCCC2)nc(NCc2cc(Nc3ccnc4cc(Cl)ccc34)ccc2F)n1", "LABEL": "active"}

Request: Give the logged outcome of this assay for the following molecule: Cc1ccc(Cc2cnc(NC(=O)c3cc(C)oc3C)s2)cc1
Result: inactive

Request: Give the logged outcome of this assay for the following molecule: Cc1ccc(/C=C(\C#N)c2cc3ccccc3[nH]2)cc1
Result: inactive

Request: Give the logged outcome of this assay for the following molecule: CC(=O)c1c(C)nc(SCC(=O)Nc2ccc(Cl)cc2)n1-c1ccc(Cl)cc1
Result: inactive

Request: Give the logged outcome of this assay for the following molecule: Cc1ccc(-c2nc3nc(-c4ccc(Cl)cc4)nc(N4CCCNCC4)c3o2)cc1
Result: active

Request: Give the logged outcome of this assay for the following molecule: N#Cc1c(N)nnn1Cc1cc(=O)oc2ccc(O)cc12
Result: inactive

Request: Give the logged outcome of this assay for the following molecule: Cc1cc(N2CCN(CC(=O)Nc3ccc4c(ccn4Cc4ccccc4)c3)CC2)nc(N2CCCCCC2)n1
Result: inactive

Request: Give the logged outcome of this assay for the following molecule: COc1cc(CNC(=O)CCCC/C=C/C(C)C)ccc1OCc1cn(-c2ccc([N+](=O)[O-])cc2)nn1
Result: inactive

Attribution: PubChem BioAssay (NCI)
